STUDY SYSTEM: SARS-CoV-2 nsp14 guanine-N7 methyltransferase (Severe acute respiratory syndrome coronavirus 2)
Format: biochemical
Counter-ions that a name gives are not always drawn. Peptide text beside a SMILES is read from it. * marks the point of attachment. Cbz = O=C(OCc1ccccc1)*
I would appreciate it if you labelled entries Yes when Z-Score in primary screen is 4 or higher, otherwise No.

- c1ccc2c(c1)N=C(N1CCNCC1)c1ccccc1N2 [DREADD agonist 21]: No
- COc1ccc(CCNC[C@H](O)c2ccc(O)cc2)cc1OC [R(-)-Denopamine]: Yes
- O=C1NC(=O)C(c2ccccc2)(c2ccccc2)N1 [Phenytoin sodium]: No
- C[n+]1ccccc1CC(=O)c1ccc(Br)cc1.[I-] [S 24795]: No
- CCCN1C[C@H](CSC)C[C@@H]2c3cccc4[nH]cc(c34)C[C@H]21 [Pergolide methanesulfonate]: No
- C[C@H](N)C(=O)N1C[C@H](CCCB(O)O)[C@](N)(C(=O)O)C1 [CB-1158 (dihydrochloride)]: Yes
- O=c1c(O)c(-c2cc(O)c(O)c(O)c2)oc2cc(O)cc(O)c12 [Myricetin]: Yes
- CCN(CC)CC.Nc1ncnc2c1ncn2[C@@H]1O[C@@H]2COP(O)(=S)O[C@H]2[C@H]1O (stereo partly drawn) [Sp-cAMPS triethylamine]: No
- CCCCOc1ccc(CC(=O)NO)cc1 [Bufexamac]: Yes
- Brc1c(NC2=NCCN2)ccc2nccnc12 [UK 14,304]: No
- Br.NC1CCc2cc(O)c(O)cc2C1 (stereo not drawn) [6,7-ADTN hydrobromide]: No
- O=c1c2ccccc2[se]n1-c1ccccc1 [Ebselen]: Yes
- CC(C[N+](C)(C)C)OC(N)=O (stereo not drawn) [Carbamyl-beta-methylcholine]: No
- C[C@@H]1CC[C@H]2[C@@H](C)C(=O)O[C@@H]3O[C@@]4(C)CC[C@@H]1[C@]32OO4 [Artemisisin]: No
- CC(C)[C@H](NC(=O)OCc1ccccc1)C(=O)N[C@H](C=O)Cc1ccccc1 [MDL 28170] (Cbz-Val-Phe-aldehyde): No
- C[N+]1(C)CCC[C@H]1C(=O)[O-].Cl [Stachydine hydrochloride]: No
- Cc1cncc(CN2CCC(=C3c4ccc(Cl)cc4CCc4cccnc43)CC2)c1.O=C(O)/C=C/C(=O)O [Rupatadine Fumarate]: No
- CCCCNc1cc(C(=O)O)cc(S(N)(=O)=O)c1Oc1ccccc1 [Bumetanide]: No
- CCn1nc(C(=O)O)c(=O)c2cc3c(cc21)OCO3 [Cinoxacin]: No
- Nc1nc(OCc2cc(Br)cs2)c2[nH]cnc2n1 [Lomeguatrib]: No
- CC1(C)CNc2cc(NC(=O)c3cccnc3NCc3ccncc3)ccc21 [Motesanib]: No
- CC(COc1ccc(/C=C/c2ccccc2)cc1)[N+](C)(C)C.[I-] (stereo not drawn): No
- COc1ccc(C2=N[C@H](c3ccc(Cl)cc3)[C@H](c3ccc(Cl)cc3)N2C(=O)N2CCNC(=O)C2)c(OC(C)C)c1 [Nutlin (3b)]: Yes
- C[C@@H]1O[C@H](C[N+](C)(C)C)C[C@H]1O.[Cl-] (racemic) [(±)-Muscarine chloride]: No
- CCC(Sc1nnc2c(n1)[nH]c1ccccc12)C(=O)N1c2ccccc2Sc2ccccc21 (stereo not drawn): Yes
- CC(N)c1cccc(Cl)c1Cl.Cl (racemic): No
- C1=C2CCCN[C@H]2[C@@H]2C[C@H]1[C@H]1CCCCN1C2 [Aloperine]: Yes
- CC(Cc1ccc(O)cc1)NCC(O)c1cc(O)cc(O)c1 (stereo not drawn) [Fenoterol hydrobromide]: No
- CC(C)(C)c1cc(C=C(C#N)C#N)cc(C(C)(C)C)c1O [Tyrphostin A9]: No
- NC(=O)C(=O)O [Sodium Oxamate]: No
- COc1ccc2c(c1)[C@]13CCCC[C@@H]1[C@H](C2)N(C)CC3 [Dextromethorphan]: No
- CNC[C@H](O)[C@@H](O)[C@H](O)[C@H](O)CO [Meglumine]: No
- N#Cc1ccc(N2N=C3c4ccc(C(=O)O)cc4CC[C@@H]3[C@@H]2C2CCCC2)cc1Cl [PF-03882845]: Yes
- NC(N)=NCc1cccc(I)c1.NC(N)=NCc1cccc(I)c1.O=S(=O)(O)O [m-Iodobenzylguanidine hemisulfate]: Yes
